Entries and their EC50, CreLuc assay, 0.5% hP
target of assay: human GLP-1 receptor (human, UniProt P43220 24-463)
test summary: cell-based or functional assay
Starred links: 1 amine or outer side, 2 acyl side, 3 side chain; linkers in the order of their positions; H or OH if unused. Non-standard residues stand in square brackets, D forms with d. Groups on a side chain read outwards from the residue. No end group written: not given here. *: point of attachment. C20 diacid = O=C(O)CCCCCCCCCCCCCCCCCCC(=O)*; C18 diacid = O=C(O)CCCCCCCCCCCCCCCCC(=O)*; γGlu = O=C(O)[C@H](CCC(=O)[*:2])N[*:1]; εLys = N[C@@H](CCCCN[*:1])C(=O)[*:2]; AEEA = NCCOCCOCC(=O)O; Aib = CC(C)(N)C(=O)O
endpoint label: EC50, CreLuc assay, 0.5% hP (pM)

>>> measurement("Y[Aib]EGTFTSDYSI[Aib]LEKQAQ[Aib]EFVQWLIK([εLys-γGlu-γGlu-γGlu-γGlu-γGlu-γGlu-γGlu-C20 diacid])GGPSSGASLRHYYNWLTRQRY-NH2 (also: TFA salt) [Compound 43]")
410
>>> measurement("YXEGTFTSDYSIXLEKQAQXAFVEWLIKGGPSSGADLRHYLNWLTRQRY (Aib at 2, 13, 20; K28 side chain: C20DA-gGlu-gGlu-gGlu-gGlu-gGlu-gGlu-eLys; C-terminal NH2) [Compound 72]")
150
>>> measurement("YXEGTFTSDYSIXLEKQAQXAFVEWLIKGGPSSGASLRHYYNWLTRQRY (Aib at 2, 13, 20; DLeu 37; DHis 39; DArg 46; DTyr 49; K28 side chain: C20DA-gGlu-gGlu-gGlu-gGlu-gGlu-gGlu-eLys; C-terminal NH2) [Compound 5]")
110
>>> measurement("YXEGTFTSDYSIXLEKQAQXAFVEWLIKGGPSSGQSLRHYYNWLTRQRY (Aib at 2, 13, 20; K28 side chain: C20DA-gGlu-gGlu-gGlu-gGlu-gGlu-gGlu-eLys; C-terminal NH2) [Compound 84]")
130
>>> measurement("Y[Aib]EGTFTSDYSI[Aib]LEKQAQ[Aib]AFVQWLIK([AEEA-AEEA-Glu-Glu-Glu-Glu-C18 diacid])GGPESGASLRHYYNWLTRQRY-NH2 (also: TFA salt) [Compound 52]")
90
>>> measurement("Y[Aib]EGTFTSDYSI[Aib]LEKQAQ[Aib]AFVQWLIK([AEEA-AEEA-γGlu-γGlu-γGlu-γGlu-C20 diacid])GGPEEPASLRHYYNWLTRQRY-NH2 (also: TFA salt) [Compound 77]")
240
